Test: inhibitors of intracellular T. cruzi replication, confirmation, NIH3T3 host cells, beta-gal luminescence (AID 2044);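 note: intracellular parasites grown in NIH/3T3 mouse fibroblasts as host cells; luminescent beta-galactosidase reporter signal from transgenic T. cruzi replicating inside host cells; inhibitors lower the luminescence signal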
Assay type: functional, cell-based
Active and inactive are the calls of the source. Cut-off read from the data, not from the text of the source: actives have a measured EC50 and inactives only a lower limit.
Quantity Name: EC50

Input line: For the molecule CC1CCN(c2c([N+](=O)[O-])nn(-c3ccc4c(c3)OCCO4)[n+]2[O-])CC1 , what EC50 is on record?
Output line: 0.431 µM (active)

Input line: For the molecule CC(C)(C)NC(=O)CSc1nc2ccc(Nc3nc(N4CCOCC4)nc(N4CCOCC4)n3)cc2s1 , what EC50 is on record?
Output line: 0.832 µM (active)

Input line: For the molecule Cc1c2c(n3c(nc4ccccc43)c1C#N)N(CCCN(C)C)CC2 , what EC50 is on record?
Output line: 0.242 µM (active)

Input line: For the molecule O=C(/C(=C/c1ccc(Cl)cc1)c1nc2ccccc2[nH]1)c1ccccc1 , what EC50 is on record?
Output line: 0.824 µM (active)

Input line: For the molecule C=CCn1c(O)c(N=NC(=S)Nc2ccc(OC)c(Cl)c2)c2ccccc21 , what EC50 is on record?
Output line: 0.586 µM (active)

Input line: For the molecule Cc1cc(N/N=C/c2ccc(O)c(C)c2O)nc(-c2ccccc2O)n1 , what EC50 is on record?
Output line: 1.1 µM (active)

Input line: For the molecule CCOC(=O)C1=C(CNCCc2ccc(Cl)cc2)NC(=O)NC1c1ccc2c(c1)OCO2 (centres undefined) , what EC50 is on record?
Output line: 13.3 µM (active)

Input line: For the molecule Cc1cccc(C(=N)NOC(=O)N2CCOCC2)c1 , what EC50 is on record?
Output line: 2.63 µM (active)

Input line: For the molecule OCCCCNCc1ccc(OCc2ccc(Cl)cc2)cc1 , what EC50 is on record?
Output line: 2.39 µM (active)
